Property: EC50; scope: individual compounds
# TARGET OR TEST SYSTEM: γ-secretase (Homo sapiens)
# EXPERIMENT SUMMARY: Cellular γ-secretase assay (inhibition of Aβ42 secretion, AlphaLisa)
# Type: cell-based
# SETTINGS: Human neuroglioma H4 cells overexpressing human APP695 Swedish double mutation (K595N/M596L); 24 hr compound incubation; secreted Aβ42 in supernatant
Report field: quantity (unit follows the number).

Fill in EC50 for record Cc1cc(N2CC3CCC(C2)C3Nc2nc3c(O[C@@H](C)C(F)(F)F)nccn3n2)sn1 (single isomer, unassigned) [Example 36] 0.006 µM

Fill in EC50 for record Cc1cc(N2C[C@H]3CC[C@@H](C2)[C@H]3Nc2nc3c(OC(C)C(F)(F)F)cccn3n2)on1 (single isomer, unassigned) [Example 43] 0.027 µM

Fill in EC50 for record Cc1nsc(N2CC3CCC(C2)C3Nc2nc3c(OC(C)C(F)(F)F)cccn3n2)n1 (single isomer, unassigned) [Example 5] 0.027 µM

Fill in EC50 for record Cc1nsc(N2CC3CCC(C2)C3Nc2nc3c(OC(C)C(F)(F)F)cccn3n2)n1 (single isomer, unassigned) [Example 6] 0.016 µM

Fill in EC50 for record Cc1cc(N2CC3CCC(C2)C3Nc2nc3c(O[C@H](C)C(F)(F)F)nccn3n2)sn1 (single isomer, unassigned) [Example 35] 0.006 µM

Please examine the following record next.
Fill in EC50 for record Cc1noc(N2CC3CCC(C2)C3Nc2nc3c(O[C@H](C)C(F)(F)F)ccc(C(F)(F)F)n3n2)n1 (single isomer, unassigned) [Example 81] 0.043 µM
